- experiment: physchem
- Type: physicochemical
- recorded conditions: n-octanol:water, different experiments; read-out: Log P range
endpoint: logP

Noted for CO[C@H]1/C=C/O[C@@]2(C)Oc3c(C)c(O)c4c(=O)c(c5oc6cc(N7CCN(CC(C)C)CC7)cc(O)c6nc-5c4c3C2=O)NC(=O)/C(C)=C\C=C\[C@H](C)[C@H](O)[C@@H](C)[C@@H](O)[C@@H](C)[C@H](OC(C)=O)[C@@H]1C : its logP reads 4.9 to 5.9

* * *

- experiment: Phase 1 Study ABI-1648-006, single oral dose pharmacokinetics
- recorded conditions: female, human, plasma, po, 25 mg, Elimination t1/2 Mean, females, single oral dose 25 mg
endpoint: half-life (h)
Please state the figure in h; there is no need to write the unit.

So for CO[C@H]1/C=C/O[C@@]2(C)Oc3c(C)c(O)c4c(=O)c(c5oc6cc(N7CCN(CC(C)C)CC7)cc(O)c6nc-5c4c3C2=O)NC(=O)/C(C)=C\C=C\[C@H](C)[C@H](O)[C@@H](C)[C@@H](O)[C@@H](C)[C@H](OC(C)=O)[C@@H]1C , the logged half-life turned out to be 150

* * *

- experiment: Phase 1 Study ABI-1648-006, multiple oral dose pharmacokinetics
- recorded conditions: male, human, plasma, oral, 2.5 mg
endpoint: Cmax (ng/mL)
Give your result in ng/mL as a bare value.

Recorded Cmax (compound CO[C@H]1/C=C/O[C@@]2(C)Oc3c(C)c(O)c4c(=O)c(c5oc6cc(N7CCN(CC(C)C)CC7)cc(O)c6nc-5c4c3C2=O)NC(=O)/C(C)=C\C=C\[C@H](C)[C@H](O)[C@@H](C)[C@@H](O)[C@@H](C)[C@H](OC(C)=O)[C@@H]1C ): 8.5

* * *

- experiment: Non-clinical oral pharmacokinetics in the rat
- Type: in vivo
- recorded conditions: rat, plasma, po; male rats, 100 mg/kg
endpoint: bioavailability (%)
Number in %, nothing else.

The compound identified as CO[C@H]1/C=C/O[C@@]2(C)Oc3c(C)c(O)c4c(=O)c(c5oc6cc(N7CCN(CC(C)C)CC7)cc(O)c6nc-5c4c3C2=O)NC(=O)/C(C)=C\C=C\[C@H](C)[C@H](O)[C@@H](C)[C@@H](O)[C@@H](C)[C@H](OC(C)=O)[C@@H]1C [rifalazil] registered its bioavailability at 11.7

* * *

- experiment: Phase 1 Study ABI-1648-006, multiple oral dose pharmacokinetics
- recorded conditions: female, human, plasma, oral, 2.5 mg
endpoint: Cmax (ng/mL)
The answer is to be given in ng/mL; state only the numeric part.

Reported Cmax for CO[C@H]1/C=C/O[C@@]2(C)Oc3c(C)c(O)c4c(=O)c(c5oc6cc(N7CCN(CC(C)C)CC7)cc(O)c6nc-5c4c3C2=O)NC(=O)/C(C)=C\C=C\[C@H](C)[C@H](O)[C@@H](C)[C@@H](O)[C@@H](C)[C@H](OC(C)=O)[C@@H]1C [rifalazil] was 7

* * *

- experiment: Non-clinical oral pharmacokinetics in the rat
- Type: in vivo
- recorded conditions: rat, plasma, po; female rats, 3 mg/kg
endpoint: bioavailability (%)
Form entry: value (%) — number only.

Reported bioavailability ( CO[C@H]1/C=C/O[C@@]2(C)Oc3c(C)c(O)c4c(=O)c(c5oc6cc(N7CCN(CC(C)C)CC7)cc(O)c6nc-5c4c3C2=O)NC(=O)/C(C)=C\C=C\[C@H](C)[C@H](O)[C@@H](C)[C@@H](O)[C@@H](C)[C@H](OC(C)=O)[C@@H]1C ) = 28.9

* * *

- experiment: Phase 1 pharmacokinetic analyses by gender, single or multiple doses 2.5-50 mg
- Type: in vivo, human
- recorded conditions: both sexes, human, plasma, oral, following single doses; read-out: mean elimination t1/2
endpoint: half-life

What the record says about CO[C@H]1/C=C/O[C@@]2(C)Oc3c(C)c(O)c4c(=O)c(c5oc6cc(N7CCN(CC(C)C)CC7)cc(O)c6nc-5c4c3C2=O)NC(=O)/C(C)=C\C=C\[C@H](C)[C@H](O)[C@@H](C)[C@@H](O)[C@@H](C)[C@H](OC(C)=O)[C@@H]1C : half-life is 100 to 150 h

* * *

- experiment: Phase 1 Study ABI-1648-006, multiple oral dose pharmacokinetics
- recorded conditions: female, human, plasma, oral, 5 mg
endpoint: half-life (days)
Please give a number only; it is taken to be in days.

The compound listed as CO[C@H]1/C=C/O[C@@]2(C)Oc3c(C)c(O)c4c(=O)c(c5oc6cc(N7CCN(CC(C)C)CC7)cc(O)c6nc-5c4c3C2=O)NC(=O)/C(C)=C\C=C\[C@H](C)[C@H](O)[C@@H](C)[C@@H](O)[C@@H](C)[C@H](OC(C)=O)[C@@H]1C [rifalazil] shows half-life equal to 7.23

* * *

- experiment: Phase 1 Study ABI-1648-006, single oral dose pharmacokinetics
- recorded conditions: male, human, plasma, po, 25 mg, Cmax Mean, males, single oral dose 25 mg
endpoint: Cmax (ng/mL)
Provide the reading as a plain figure in ng/mL.

GET /value?item= CO[C@H]1/C=C/O[C@@]2(C)Oc3c(C)c(O)c4c(=O)c(c5oc6cc(N7CCN(CC(C)C)CC7)cc(O)c6nc-5c4c3C2=O)NC(=O)/C(C)=C\C=C\[C@H](C)[C@H](O)[C@@H](C)[C@@H](O)[C@@H](C)[C@H](OC(C)=O)[C@@H]1C [rifalazil] &field=Cmax returns 24.7

* * *

- experiment: Phase 1 Study ABI-1648-006, multiple oral dose pharmacokinetics
- recorded conditions: female, human, plasma, oral, 2.5 mg
endpoint: Tmax (h)
Lab book: enter the figure in h, no units written.

Per the records, this compound ( CO[C@H]1/C=C/O[C@@]2(C)Oc3c(C)c(O)c4c(=O)c(c5oc6cc(N7CCN(CC(C)C)CC7)cc(O)c6nc-5c4c3C2=O)NC(=O)/C(C)=C\C=C\[C@H](C)[C@H](O)[C@@H](C)[C@@H](O)[C@@H](C)[C@H](OC(C)=O)[C@@H]1C ) has Tmax equal to 4.3

* * *

- experiment: Phase 1 Study ABI-1648-006, multiple oral dose pharmacokinetics
- recorded conditions: male, human, plasma, oral, 2.5 mg
endpoint: Tmax (h)
Could you give me the number in h? Just the number is fine.

So for CO[C@H]1/C=C/O[C@@]2(C)Oc3c(C)c(O)c4c(=O)c(c5oc6cc(N7CCN(CC(C)C)CC7)cc(O)c6nc-5c4c3C2=O)NC(=O)/C(C)=C\C=C\[C@H](C)[C@H](O)[C@@H](C)[C@@H](O)[C@@H](C)[C@H](OC(C)=O)[C@@H]1C [rifalazil] , the logged Tmax turned out to be 4.3

* * *

- experiment: Non-clinical oral pharmacokinetics in the rat
- Assay type: in vivo
- recorded conditions: rat, plasma, po; female rats, 100 mg/kg
endpoint: bioavailability
In your response, the unit should come after the numeric value.

// bioavailability value for CO[C@H]1/C=C/O[C@@]2(C)Oc3c(C)c(O)c4c(=O)c(c5oc6cc(N7CCN(CC(C)C)CC7)cc(O)c6nc-5c4c3C2=O)NC(=O)/C(C)=C\C=C\[C@H](C)[C@H](O)[C@@H](C)[C@@H](O)[C@@H](C)[C@H](OC(C)=O)[C@@H]1C : 6.1%

* * *

- experiment: Phase 1 Study ABI-1648-006, single oral dose pharmacokinetics
- recorded conditions: male, human, plasma, po, 2.5 mg, AUC0−∞ GMean (geometric mean), males, single oral dose 2.5 mg
endpoint: AUC(0-inf)
// return the numeric value with its unit appended

Form: compound = CO[C@H]1/C=C/O[C@@]2(C)Oc3c(C)c(O)c4c(=O)c(c5oc6cc(N7CCN(CC(C)C)CC7)cc(O)c6nc-5c4c3C2=O)NC(=O)/C(C)=C\C=C\[C@H](C)[C@H](O)[C@@H](C)[C@@H](O)[C@@H](C)[C@H](OC(C)=O)[C@@H]1C [rifalazil] ; AUC(0-inf) = 172 ng·h/mL

* * *

- experiment: Phase 1 Study ABI-1648-006, multiple oral dose pharmacokinetics
- recorded conditions: male, human, plasma, oral, 5 mg
endpoint: AUC (ng·h/mL)
# number only, unit ng·h/mL dropped from output

The value of AUC measured for the molecule CO[C@H]1/C=C/O[C@@]2(C)Oc3c(C)c(O)c4c(=O)c(c5oc6cc(N7CCN(CC(C)C)CC7)cc(O)c6nc-5c4c3C2=O)NC(=O)/C(C)=C\C=C\[C@H](C)[C@H](O)[C@@H](C)[C@@H](O)[C@@H](C)[C@H](OC(C)=O)[C@@H]1C turned out to be 261

* * *

- experiment: Phase 1 Study ABI-1648-006, multiple oral dose pharmacokinetics
- recorded conditions: male, human, plasma, oral, 12.5 mg
endpoint: Cmax
Returns: string containing the numeric result and its unit.

molecule CO[C@H]1/C=C/O[C@@]2(C)Oc3c(C)c(O)c4c(=O)c(c5oc6cc(N7CCN(CC(C)C)CC7)cc(O)c6nc-5c4c3C2=O)NC(=O)/C(C)=C\C=C\[C@H](C)[C@H](O)[C@@H](C)[C@@H](O)[C@@H](C)[C@H](OC(C)=O)[C@@H]1C , Cmax observed: 20.9 ng/mL
